Tested on: Staphylococcus aureus
procedure-summary: Antibacterial activity against Staphylococcus aureus after 24 hrs by NCCLS method
Format: functional
Measured MIC of individual entries

molecule-smiles: CCN1CCN(CC(=O)Nc2cc(C)nc3ccc(NC(=O)Nc4cc(Cl)cc(Cl)c4)cc23)CC1
assayed-target: Staphylococcus aureus
MIC / µg/mL: 3.12
--
molecule-smiles: Cc1cc(NC(=O)CN2CCN(C)CC2)c2cc(NC(=O)Nc3ccc(Cl)c(Cl)c3)ccc2n1
assayed-target: Staphylococcus aureus
MIC / µg/mL: 6.25
--
molecule-smiles: Cc1cc(NC(=O)CN2CCN(C)CC2)c2cc(NC(=O)Nc3ccc(Cl)c(C(F)(F)F)c3)ccc2n1
assayed-target: Staphylococcus aureus
MIC / µg/mL: 6.25
--
molecule-smiles: CCN1CCN(CC(=O)Nc2cc(C)nc3ccc(NC(=O)Nc4ccc(Cl)c(Cl)c4)cc23)CC1
assayed-target: Staphylococcus aureus
MIC / µg/mL: 6.25
--
molecule-smiles: Cc1cc(NC(=O)c2cccc(Cl)c2)c2cc(NC(=O)Nc3ccc(Cl)cc3)ccc2n1
assayed-target: Staphylococcus aureus
MIC / µg/mL: 3.12

Where do the numbers come from? From ChEMBL document CHEMBL1139333.
